Reported values of pIC50 for individual entries
target: KRAS (WT) (Homo sapiens, UniProt P01116); construct: Biotinylated KRAS protein amino acids 1-169 (produced at Erasca); made in house; assay: In-vitro RAS-RAF binding assay (RRB), HTRF/FRET; format: biochemical; conditions: Table 2, average of multiple runs of each compound; read-out: Inhibition of RAS-RAF Binding (in-vitro) KRAS (WT) IC50
Sequence (P01116 1-169 isoform P01116-2): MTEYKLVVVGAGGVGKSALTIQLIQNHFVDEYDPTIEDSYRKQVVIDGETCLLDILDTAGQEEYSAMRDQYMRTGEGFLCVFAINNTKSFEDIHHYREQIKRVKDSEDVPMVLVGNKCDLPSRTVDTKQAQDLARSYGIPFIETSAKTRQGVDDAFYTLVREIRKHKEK
The meaning of pIC50 here: minus log10 of the concentration in molar units.

Compound: C#Cc1c(F)ccc2cc(O)cc(-c3ncc4c(N5CC6CCC(C5)N6)nc(OCCN5CCC(C)(COc6cc([C@H](C(=O)N7C[C@H](O)C[C@H]7C(=O)N[C@@H](C)c7ccc(-c8c(F)cc(F)cc8F)cc7)C(C)C)on6)CC5)nc4c3F)c12
Metric Name: pIC50
Value Measured: 5.85

Consider now this further compound.
Short answer for C[C@H](NC(=O)[C@@H]1C[C@@H](O)CN1C(=O)[C@@H](NC(=O)CCOCCCN1CCC[C@H]1COc1nc(N2CC3CCC(C2)N3)c2cc(Cl)c(-c3ccc(F)c4sc(N)c(C#N)c34)c(F)c2n1)C(C)(C)C)c1ccc(-c2c(F)cc(F)cc2F)cc1 [Example 37] : pIC50 was 6.56

---

molecular target: KRAS (WT) (Homo sapiens); construct: Biotinylated KRAS protein amino acids 1-169 (produced at Erasca); made in house; experiment: In-vitro RAS-RAF binding assay (RRB), HTRF/FRET; format: biochemical; details: Table 2, average of multiple runs of each compound; read-out: Inhibition of RAS-RAF Binding (in-vitro) KRAS (WT) IC50
Reported values of pIC50 for individual entries
The meaning of pIC50 here: minus log10 of the concentration in molar units.

Compound: C#Cc1c(F)ccc2cc(O)cc(-c3ncc4c(N5CC6CCC(C5)N6)nc(OC[C@@H]5CCCN5CCCOCCC(=O)N[C@H](C(=O)N5C[C@H](O)C[C@H]5C(=O)N[C@@H](C)c5ccc(-c6c(F)cncc6F)cc5)C(C)(C)C)nc4c3F)c12 [Example 27]
pIC50: 7.42

Consider now this further compound.
Short answer for C[C@H](NC(=O)[C@@H]1C[C@@H](O)CN1C(=O)[C@@H](NC(=O)CCCCN1CCC[C@H]1COc1nc(N2CC3CCC(C2)N3)c2cnc(-c3cc(O)cc4cccc(F)c34)c(F)c2n1)C(C)(C)C)c1ccc(-c2cccc(F)c2)cc1 [Example 86] : pIC50 was 6.25

---

target: KRAS (WT) (Homo sapiens); construct: Biotinylated KRAS protein amino acids 1-169 (produced at Erasca); made in house; assay: In-vitro RAS-RAF binding assay (RRB), HTRF/FRET; type: biochemical; settings: Table 2, average of multiple runs of each compound; read-out: Inhibition of RAS-RAF Binding (in-vitro) KRAS (WT) IC50
Reported values of IC50 for individual entries
State just the number; it will be interpreted in nM.

Compound: CC(C)[C@@H](C(=O)N1C[C@H](O)C[C@H]1C(=O)N[C@@H](C)c1ccc(-c2c(F)cccc2F)cc1)c1cc(N2CC3(CCN(CCOc4nc(N5CC6CCC(C5)N6)c5cc(Cl)c(-c6ccc(F)c7sc(N)c(C#N)c67)c(F)c5n4)CC3)C2)no1 [Example 70]
Subject Of Test: KRAS (WT) (Homo sapiens)
Metric Name: IC50
Output Unit: nM
Value Measured: 5500

Short answer for C[C@H](NC(=O)[C@@H]1C[C@@H](O)CN1C(=O)[C@@H](NC(=O)CCOCCCN1CCC[C@H]1COc1nc(N2CC3CCC(C2)N3)c2cc(C(F)(F)F)c(-c3ccc(F)c4sc(N)c(C#N)c34)c(F)c2n1)C(C)(C)C)c1ccc(-c2ccccc2Cl)cc1 [Example 95] : IC50 was 65

Short answer for Cc1ncsc1-c1ccc([C@H](C)NC(=O)[C@@H]2C[C@@H](O)CN2C(=O)[C@@H](NC(=O)CCOCCCN2CCC[C@H]2COc2nc(N3CC4CCC(C3)N4)c3cc(C(F)(F)F)c(-c4ccc(F)c5sc(N)c(C#N)c45)c(F)c3n2)C(C)(C)C)cc1 [Example 91] : IC50 was 23

Short answer for C#Cc1c(F)ccc2cc(O)cc(-c3ncc4c(N5CC6CCC(C5)N6)nc(OC[C@@H]5CCCN5CCCC5CCC(=O)N5[C@H](C(=O)N5C[C@H](O)C[C@H]5C(=O)N[C@@H](C)c5ccc(-c6scnc6C)cc5)C(C)(C)C)nc4c3F)c12 (stereo partly shown) [Example 10] : IC50 was 134
